# testProtocol: NCI Yeast Anticancer Drug Screen. Data for the rad50 strain (AID 155);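 further: 0% = growth of vehicle-only cultures of the same strain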
# experimentalConditions: S. cerevisiae rad50 strain growth inhibition; at 50.0 µM
This is part of a sample that, as a whole, favours compounds with a hit. Of some 79,000 tested, about 15% had one in any assay. Activity calls are given as the source filed them. No stated cut-off is given here; in the data, active means growth inhibition above about 70%; inactive means the rest.
Permitted responses: 1 (yes) (active), 0 (no) (inactive)

-- ask What classification did CCCCCCCCCCC[N+](C)(C)CCCCCC[N+](C)(C)CCCCCCCCCCC end up with in this test?
-- reply 1 (yes)

-- ask What classification did C=CCOC(=O)C#CCCCC end up with in this test?
-- reply 0 (no)

-- ask What classification did O=[N+]([O-])c1ccc(S(=O)(=O)N/N=C/C=C/c2ccccc2)cc1 end up with in this test?
-- reply 1 (yes)

-- ask What classification did ClCc1ccc2ccc3ccc(CCl)nc3c2n1 end up with in this test?
-- reply 0 (no)

-- ask What classification did Oc1cccc2cc(Br)cnc12 end up with in this test?
-- reply 1 (yes)

-- ask What classification did CCCCCCCCCCCCCCNCCC(=O)O end up with in this test?
-- reply 1 (yes)

-- ask What classification did Oc1ccc2c(c1)OCC1c3ccccc3OC21 (configuration not stated) end up with in this test?
-- reply 1 (yes)
